# System Tested: Alkaline phosphatase, tissue-nonspecific isozyme (Homo sapiens) (UniProt P05186)
# Sequence (P05186 whole entry, looked up): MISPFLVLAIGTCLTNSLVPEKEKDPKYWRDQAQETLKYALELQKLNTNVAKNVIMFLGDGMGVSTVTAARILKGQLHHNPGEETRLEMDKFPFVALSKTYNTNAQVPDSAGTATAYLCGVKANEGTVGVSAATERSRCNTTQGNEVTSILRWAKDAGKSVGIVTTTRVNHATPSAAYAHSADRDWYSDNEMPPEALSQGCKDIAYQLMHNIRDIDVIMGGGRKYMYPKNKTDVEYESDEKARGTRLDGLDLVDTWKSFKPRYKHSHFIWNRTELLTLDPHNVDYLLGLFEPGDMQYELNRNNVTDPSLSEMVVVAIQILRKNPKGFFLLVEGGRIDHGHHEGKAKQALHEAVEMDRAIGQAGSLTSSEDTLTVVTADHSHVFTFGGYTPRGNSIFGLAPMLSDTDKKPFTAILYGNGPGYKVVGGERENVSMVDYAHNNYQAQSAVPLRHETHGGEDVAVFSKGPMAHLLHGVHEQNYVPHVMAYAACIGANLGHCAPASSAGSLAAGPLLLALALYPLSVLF
# Method: TNAP enzyme activity modulation, counter to mouse IAP activators, SAR follow-up, selectivity assay for mouse IAP activator project, biochemical, set 2 (AID 588605)
# Applied Conditions: SAR counter-screen for mouse IAP activators
The source made the active and inactive calls. No rule for the calls is given here.
The reply should be one of these categories: active, inactive

Example cases with answers are listed next.
# Compound, System Tested, Class Label
rows = [
    ("CC1CCN(S(=O)(=O)c2ccc(NC(=S)NCCC(c3ccccc3)c3ccccc3)cc2)CC1", "Alkaline phosphatase, tissue-nonspecific isozyme (Homo sapiens) (UniProt P05186)", "active"),
    ("O=S(=O)(c1ccc(NC(=S)NCc2cccc(F)c2)cc1)N1CCCCC1", "Alkaline phosphatase, tissue-nonspecific isozyme (Homo sapiens) (UniProt P05186)", "active"),
    ("CC(CCc1ccccc1)NC(=S)Nc1cccc(S(=O)(=O)N(C)C)c1 (stereo unspecified)", "Alkaline phosphatase, tissue-nonspecific isozyme (Homo sapiens) (UniProt P05186)", "active"),
    ("Cc1ccc(CNC(=S)Nc2ccc(S(=O)(=O)N(C)C)cc2)cc1", "Alkaline phosphatase, tissue-nonspecific isozyme (Homo sapiens) (UniProt P05186)", "active"),
    ("CN(C)S(=O)(=O)c1cccc(NC(=S)NCCC(=O)N2CCCC2)c1", "Alkaline phosphatase, tissue-nonspecific isozyme (Homo sapiens) (UniProt P05186)", "inactive"),
]

Here's the next entry for you.
Query: Entry `O=C(CCc1ccccc1)NC(=S)Nc1cccc(S(=O)(=O)N2CCCC2)c1` : call = ?
Reply: inactive

The origin of these recorded values is PubChem BioAssay AID588605.
